Cited source: PubChem BioAssay

Biological target: Follistatin (Homo sapiens) (UniProt P19883)
Sequence (P19883 whole entry, looked up): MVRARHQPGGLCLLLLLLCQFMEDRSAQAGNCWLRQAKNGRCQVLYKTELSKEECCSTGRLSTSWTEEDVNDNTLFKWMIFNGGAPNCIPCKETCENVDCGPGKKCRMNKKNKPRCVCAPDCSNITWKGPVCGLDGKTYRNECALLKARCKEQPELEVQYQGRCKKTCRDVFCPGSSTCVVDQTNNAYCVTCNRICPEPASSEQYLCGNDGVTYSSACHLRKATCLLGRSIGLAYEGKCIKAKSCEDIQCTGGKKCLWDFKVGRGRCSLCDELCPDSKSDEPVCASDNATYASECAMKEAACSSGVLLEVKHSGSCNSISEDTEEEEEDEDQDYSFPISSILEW
Assay: follistatin binders on small-molecule microarrays, primary screen, biochemical, small-molecule microarray, 635/667 nm fluorescence (AID 1132)
Conditions: FST binding, 635 nm fluorescence, higher = more signal
Reported metric: composite z-score

1. CCOC(=O)[C@H](Cc1ccccc1)NC(=O)CCC1CC(OC(=O)NCCc2ccc(F)cc2)CC2(CCCC(COC(=O)NCCCN3CCCC3=O)O2)O1 (some centres undefined) = 0.578
2. CCC1=NOC(CCC2CC(OC(=O)NCc3cccc4c3OCO4)CC3(CCCC(COC(=O)NCCc4ccccc4OC)O3)O2)C1 (centres undefined) = 0.505
3. COC(=O)[C@H](C)NC(=O)CCC1CC(OC(=O)NCc2ccc3c(c2)OCO3)CC2(CCCC(COC(=O)NCCc3ccccc3OC)O2)O1 (some centres undefined) = -0.0381
4. O=C1C[C@@H](O)[C@@H](O)[C@@H]2[C@@H]3C(=O)N(c4cccc(Oc5ccccc5)c4)C(=O)[C@@H]3CC[C@H]12 = 0.505
